# testMethodNotes: soluble on expression in E. coli; label from the status in PepcDB or PDB records
quantityName: soluble on expression in E. coli

GAMAFDWDAYLEETGSEAAPAKCFKQAQNPPNNDFKIGMKLEALDPRNVTSTCIATVVGVLGSRLRLRLDGSDSQNDFWRLVDSTEIHAIGHCEKNGGMLQPPLGFCMNASSWPGYLCKILNNAMVAPEEIFQPEPPEPEENLFKVGQKLEAVDKKNPQLICCATVDAIKDDQIHVTFDGWRGAFDYWCNYRSRDIFPAGWCARSCHPMQPPGHKSRMDSSSSKQRCPRPRYTVVAESEAMVPASPATAHFHPNCKGGPFINNSK ... soluble
MKAARQQAIVDLLINHKSLTTEALATRLNVSKETIRRDLSELQTQGKVLRNHGRAKYIHRENQDSGDPFHIRLKSHYAHKADIAREALAWIEEGMTIALDASSTCWYLARQLPDIPIQVFTNSHPICQELGKRERIALISSGGQLERKYGCYVNPSLISQLKSLDIDLFIFSCEGIDSGGDLWDSNAINADFKSILLRRASQSLLLIDKSKFNRSGEARIGHLDDVTHIVSDAPQSLEHHHHHH ... soluble

Reference source: the DeepSol protein solubility set
